Tested on: ATP;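 note: ATP exposure 15 min at 22 °C before imaging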
Assay: switch fluorescence ratio, 500 uM ATP over buffer (Cy3 cluster intensity, sum of 5 cycles each) (fold (ratio)); higher = stronger signal-on switching upon ATP binding; sequences stand for … in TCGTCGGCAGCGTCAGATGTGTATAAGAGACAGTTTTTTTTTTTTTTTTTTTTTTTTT…TC
Details: aptamer strand: ATP DNA aptamer (quencher-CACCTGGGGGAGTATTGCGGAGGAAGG + anchor), 100 nM annealed; ATP concentration: 500 uM
Please provide measured switch fluorescence ratio for the entries that follow.
I'd appreciate a reply containing only the number, no unit.

INPUT: Bench note: what switch fluorescence ratio did GCCTTTGTAA show?
OUTPUT: 1.09

INPUT: Bench note: what switch fluorescence ratio did TTTGCGAGGT show?
OUTPUT: 0.972

INPUT: Bench note: what switch fluorescence ratio did GCAGATTACG show?
OUTPUT: 1.01

INPUT: Bench note: what switch fluorescence ratio did GAGGCGGGTG show?
OUTPUT: 1.01

INPUT: Bench note: what switch fluorescence ratio did TATTACCCAA show?
OUTPUT: 1.05

INPUT: Bench note: what switch fluorescence ratio did ACATTTTCGT show?
OUTPUT: 0.991

INPUT: Bench note: what switch fluorescence ratio did ATGGGGGAAT show?
OUTPUT: 1.02

INPUT: Bench note: what switch fluorescence ratio did AAGTGTTCAG show?
OUTPUT: 0.982

INPUT: Bench note: what switch fluorescence ratio did GAAAAGGGGG show?
OUTPUT: 0.992

INPUT: Bench note: what switch fluorescence ratio did TACGGGAATG show?
OUTPUT: 1.02

INPUT: Bench note: what switch fluorescence ratio did GGTTCACGGC show?
OUTPUT: 1.03

INPUT: Bench note: what switch fluorescence ratio did AGTGAAAATT show?
OUTPUT: 1

INPUT: Bench note: what switch fluorescence ratio did AATAAGGTA show?
OUTPUT: 0.995

INPUT: Bench note: what switch fluorescence ratio did GGCAGAAAAA show?
OUTPUT: 0.995

INPUT: Bench note: what switch fluorescence ratio did GGCTTAATGA show?
OUTPUT: 0.971

INPUT: Bench note: what switch fluorescence ratio did AAAAGTATAA show?
OUTPUT: 1.03
